// reported inhibition at 0.5 h, 10 µM per item
test_target: ABCG2 (Homo sapiens)
Sequence (Q9UNQ0 whole entry): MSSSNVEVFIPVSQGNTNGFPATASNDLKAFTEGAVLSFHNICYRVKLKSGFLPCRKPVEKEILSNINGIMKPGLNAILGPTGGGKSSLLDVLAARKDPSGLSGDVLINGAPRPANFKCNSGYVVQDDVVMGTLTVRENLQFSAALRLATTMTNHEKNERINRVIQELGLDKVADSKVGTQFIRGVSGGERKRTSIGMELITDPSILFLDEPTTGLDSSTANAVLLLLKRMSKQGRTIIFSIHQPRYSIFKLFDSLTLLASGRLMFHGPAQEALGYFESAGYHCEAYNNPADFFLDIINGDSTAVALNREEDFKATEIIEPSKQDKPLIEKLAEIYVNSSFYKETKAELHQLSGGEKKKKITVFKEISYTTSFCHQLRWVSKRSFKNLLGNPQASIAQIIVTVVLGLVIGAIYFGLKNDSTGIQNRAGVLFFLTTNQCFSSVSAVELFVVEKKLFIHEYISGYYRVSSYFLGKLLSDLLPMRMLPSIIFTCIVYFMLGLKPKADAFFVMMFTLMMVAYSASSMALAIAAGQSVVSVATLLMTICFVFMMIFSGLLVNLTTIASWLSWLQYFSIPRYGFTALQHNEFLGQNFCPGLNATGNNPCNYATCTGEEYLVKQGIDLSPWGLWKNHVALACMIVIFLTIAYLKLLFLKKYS
test_name: Inhibition of ABCG2 (unknown origin) expressed in HEK293 cells assessed as reduction in mitoxantrone efflux at 10 uM after 30 mins by flow cytometric analysis relative to Ko143
Format: cell-based
run_parameters: HEK293 cells expressing ABCG2, probe mitoxantrone, read-out: Imax
parameter_measured: inhibition at 0.5 h, 10 µM (%)

INSERT INTO assay_data (compound, measured_value) VALUES
  ('COc1ccc2[nH]cc(CCNC(=O)c3cc(=O)c4c(OCc5ccc(F)c(F)c5)cccc4o3)c2c1', 140),
  ('O=C(NCCc1c[nH]c2ccc(O)cc12)c1cc(=O)c2c(OCc3ccc(Br)cc3)cccc2o1', 104),
  ('COc1ccc2[nH]cc(CCNC(=O)c3cc(=O)c4c(OCc5ccccc5F)cccc4o3)c2c1', 131),
  ('COc1ccc2[nH]cc(CCNC(=O)c3cc(=O)c4c(OCc5ccccc5Br)cccc4o3)c2c1', 102),
  ('O=C(NCCc1c[nH]c2ccccc12)c1cc(=O)c2c(OCc3ccc(Br)cc3)cccc2o1', 97),
  ('COc1ccc2[nH]cc(CCNC(=O)c3cc(=O)c4c(OCc5cccc(F)c5)cccc4o3)c2c1', 107),
  ('COc1ccc2[nH]cc(CCNC(=O)C(CC(C)C)NC(=O)c3cc(=O)c4c(OCc5ccc(Br)cc5)cccc4o3)c2c1 (stereo not given)', 105),
  ('COc1ccc2[nH]cc(CCNC(=O)c3cc(=O)c4c(OCc5cccc(Br)c5)cccc4o3)c2c1', 98),
  ('COc1ccc2[nH]cc(CCNC(=O)C(NC(=O)c3cc(=O)c4c(OCc5ccc(Br)cc5)cccc4o3)C(C)C)c2c1 (stereo not given)', 101),
  ('COc1ccc2[nH]cc(CCNC(=O)c3cc(=O)c4c(OCc5ccc(F)cc5)cccc4o3)c2c1', 106);
